target: Dual specificity tyrosine-phosphorylation-regulated kinase 1A (Homo sapiens, UniProt Q13627); experiment: Inhibition of tetracycline-inducible EGFP-DYRK1A (unknown origin) expressed in HEK293 cells coexpressing full length human EGFP-tau protein assessed as reduction in tau-Thr212 phosphorylation incubated overnight by immunoblotting assay
metric: IC50 (µM)
API: value field is a number in µM; no unit string.

Request: Requested read-out: IC50. Entry: CC1C/C(=C\c2ccc3c(c2)CCO3)C(=O)O1 (stereo not given)
Result: 2.1

Request: # get_value(readout='IC50', item= `O=C1NC(=S)S/C1=C\c1ccc2ncccc2c1` )
Result: 1.4

Request: Which IC50 is listed for `O=C1NC(=S)S/C1=C\c1ccc2ncsc2c1` ?
Result: 2.1

Request: Need IC50, item `O=C1NC(=O)/C(=C/c2ccc3nccnc3c2)S1`
Result: 1.6

Request: Need IC50, item `O=C1OCC/C1=C\c1ccc2ncsc2c1`
Result: 0.2

----------
experiment: Half life in rat plasma at 1 uM by LC-MS/MS analysis; assay type: ADME, cell-free
metric: half-life at 1 µM (h)
Report the value in h with no unit label.

Request: Value lookup for half-life at 1 µM; key = `O=C1NC(=S)S/C1=C\c1ccc2ncsc2c1`
Result: 1.68

Request: GET /values?readout=half-life at 1 µM&item= `O=C1OCC/C1=C\c1ccc2ncsc2c1`
Result: 3.1

Request: // lookup half-life at 1 µM for `COc1ccc([C@@H]2Sc3ccccc3N(CCN(C)C)C(=O)[C@@H]2OC(C)=O)cc1`
Result: 2.08

----------
assay: Growth inhibition of human U87MG cells after 4 days by MTT assay; format: functional, cell-based, U-87MG ATCC; details: U-87 MG, 96 h
Exercise: state measured pIC50 for each of the molecules provided.
Worth noting: pIC50 values are minus log10 of concentrations stated in mol/L.

Request: State the recorded pIC50 for this entry: `O=C1NC(=O)/C(=C/c2ccc3nccnc3c2)S1`
Result: 6.49

Request: Please look up its pIC50: `COc1ccc(/C=C2/SC(=S)NC2=O)cc1`
Result: 5.02

Request: Value lookup for pIC50; key = `O=C1NC(=S)S/C1=C\c1ccc2c(c1)CCO2`
Result: 5.25

Request: # get_value(readout='pIC50', item= `COc1ccc2c(c1)[nH]c1c(C)nccc12` )
Result: 5.14

Request: What value of pIC50 has been reported for the following molecule? `O=C1NC(=S)S/C1=C\c1ccc2ncsc2c1`
Result: 6.25

Request: # input molecule: `O=C1NC(=S)S/C1=C\c1ccc2ncccc2c1` ; wanted: its pIC50
Result: 6.70

----------
molecular target: Phosphatidylinositol 4,5-bisphosphate 3-kinase catalytic subunit delta isoform (Homo sapiens); experiment: Inhibition of PI3K p110delta (unknown origin)
Sequence (O00329 whole entry, canonical isoform): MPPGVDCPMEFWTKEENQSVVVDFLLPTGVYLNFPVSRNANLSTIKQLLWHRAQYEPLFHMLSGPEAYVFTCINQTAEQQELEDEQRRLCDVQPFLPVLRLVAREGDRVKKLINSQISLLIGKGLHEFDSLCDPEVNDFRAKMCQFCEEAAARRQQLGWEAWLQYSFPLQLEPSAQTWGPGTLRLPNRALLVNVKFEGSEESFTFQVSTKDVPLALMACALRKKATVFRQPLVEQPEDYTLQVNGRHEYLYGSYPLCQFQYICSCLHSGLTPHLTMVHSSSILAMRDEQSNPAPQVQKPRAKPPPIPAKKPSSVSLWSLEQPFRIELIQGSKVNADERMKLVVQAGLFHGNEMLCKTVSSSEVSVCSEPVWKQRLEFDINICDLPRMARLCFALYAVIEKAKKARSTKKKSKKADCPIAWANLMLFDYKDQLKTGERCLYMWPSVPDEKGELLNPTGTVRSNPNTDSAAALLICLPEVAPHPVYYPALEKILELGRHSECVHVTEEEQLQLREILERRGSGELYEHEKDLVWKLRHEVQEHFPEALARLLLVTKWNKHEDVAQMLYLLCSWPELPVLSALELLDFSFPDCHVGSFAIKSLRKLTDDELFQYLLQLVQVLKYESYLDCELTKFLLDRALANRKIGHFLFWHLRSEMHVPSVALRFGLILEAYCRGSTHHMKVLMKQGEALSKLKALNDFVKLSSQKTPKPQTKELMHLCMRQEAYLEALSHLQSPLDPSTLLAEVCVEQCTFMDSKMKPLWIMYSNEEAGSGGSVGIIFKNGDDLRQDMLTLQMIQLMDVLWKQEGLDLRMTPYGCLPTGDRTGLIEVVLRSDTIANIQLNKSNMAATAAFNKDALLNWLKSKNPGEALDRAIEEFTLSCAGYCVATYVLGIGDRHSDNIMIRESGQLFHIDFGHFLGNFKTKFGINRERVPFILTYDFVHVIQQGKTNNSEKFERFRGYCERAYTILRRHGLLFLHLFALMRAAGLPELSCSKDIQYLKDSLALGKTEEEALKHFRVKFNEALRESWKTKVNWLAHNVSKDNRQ
metric: pIC50
Kindly note that pIC50 refers to -log10 of the concentration in mol/L and answer with the value alone.

Request: Reported pIC50, molecule `O=C1NC(=S)S/C1=C\c1ccc2ncccc2c1` : ____
Result: 7.79

Request: Requested read-out: pIC50. Entry: `O=C1NC(=S)S/C1=C\c1ccc2ncsc2c1`
Result: 7.91

----------
target: Casein kinase II (Homo sapiens, UniProt P19784+P67870+P68400); experiment: Inhibition of CK2 (unknown origin) using RRRDDDSDDD-NH2 as susbtrate incubated for 15 mins in presence of [gamma-32P]ATP; format: protein-complex assay
Sequence (P67870 whole entry): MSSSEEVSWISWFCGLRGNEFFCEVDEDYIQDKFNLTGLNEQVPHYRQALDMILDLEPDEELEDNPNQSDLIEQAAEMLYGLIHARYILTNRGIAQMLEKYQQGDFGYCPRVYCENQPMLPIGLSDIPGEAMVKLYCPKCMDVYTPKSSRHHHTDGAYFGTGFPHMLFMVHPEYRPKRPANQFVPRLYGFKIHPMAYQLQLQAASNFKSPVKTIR
Sequence (P68400 whole entry): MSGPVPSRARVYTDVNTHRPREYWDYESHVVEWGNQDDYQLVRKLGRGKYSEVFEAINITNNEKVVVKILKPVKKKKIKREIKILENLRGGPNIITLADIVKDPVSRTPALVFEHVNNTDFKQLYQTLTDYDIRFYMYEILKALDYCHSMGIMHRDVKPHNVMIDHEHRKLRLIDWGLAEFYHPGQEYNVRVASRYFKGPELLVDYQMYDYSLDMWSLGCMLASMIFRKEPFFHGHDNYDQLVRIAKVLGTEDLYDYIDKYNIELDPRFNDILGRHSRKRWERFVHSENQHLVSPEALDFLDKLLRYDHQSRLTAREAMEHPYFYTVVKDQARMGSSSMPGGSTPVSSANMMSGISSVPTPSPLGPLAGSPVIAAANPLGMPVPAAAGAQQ
Sequence (P19784 whole entry): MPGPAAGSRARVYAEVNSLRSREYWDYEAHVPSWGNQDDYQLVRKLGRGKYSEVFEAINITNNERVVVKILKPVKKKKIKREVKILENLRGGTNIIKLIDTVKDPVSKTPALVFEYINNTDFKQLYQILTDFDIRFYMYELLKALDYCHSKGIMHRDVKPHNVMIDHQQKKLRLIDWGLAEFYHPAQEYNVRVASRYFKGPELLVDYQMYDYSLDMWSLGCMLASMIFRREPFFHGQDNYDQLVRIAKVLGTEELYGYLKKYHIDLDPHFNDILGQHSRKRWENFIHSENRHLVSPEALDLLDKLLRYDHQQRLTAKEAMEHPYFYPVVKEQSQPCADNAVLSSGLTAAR
metric: IC50

Request: Requested field: IC50. Item: `O=C1OCC/C1=C\c1ccc2c(c1)CCCO2`
Result: > 10 µM

Request: # lookup: IC50 of `COc1ccc(/C=C2\CCCOC2=O)cc1`
Result: > 10 µM

Request: Look up IC50: `O=C1OCC/C1=C\c1ccc2c(c1)CCO2`
Result: > 10 µM

Request: Which IC50 value belongs to `O=C1OCC/C1=C\c1ccc2ncsc2c1` ?
Result: > 10 µM

Request: Recorded IC50 for `COc1ccc(/C=C2/SC(=S)NC2=O)cc1` , please?
Result: 0.22 µM

Request: Field request: IC50 | item: `O=C1OCC/C1=C\c1ccc2c(c1)OCCO2`
Result: > 10 µM

Request: Given `O=C1OCC/C1=C\c1ccc2c(c1)OCO2` , state its recorded IC50.
Result: > 10 µM

Request: Param item = CC1C/C(=C\c2ccc3c(c2)CCO3)C(=O)O1 (stereo not drawn) ; retrieve measured IC50.
Result: > 10 µM

Request: # lookup: IC50 of CC1C/C(=C\c2ccc3ncsc3c2)C(=O)O1 (stereo not drawn)
Result: > 10 µM

Request: Item under review: `O=C1NC(=S)N/C1=C\c1ccc2ncsc2c1` . Reported IC50?
Result: 2.4 µM

Request: # lookup: IC50 of `O=C1NC(=S)S/C1=C\c1ccc2ncccc2c1`
Result: 0.04 µM

Request: I am curious: what IC50 value has been reported for `O=C1NC(=O)/C(=C/c2ccc3nccnc3c2)S1` ?
Result: 0.02 µM

Request: Please give the measured IC50 for this compound: COc1ccc(/C=C2\CC(C)OC2=O)cc1 (stereo not drawn)
Result: > 10 µM

// provenance: ChEMBL document CHEMBL3774321
